Reported Activity (U/mg) by item:
Test system: homoserine transsuccinylase
assay.explanation: Homoserine transsuccinylase enzyme test using cell extracts, decrease in extinction at 232 nm, with and without L-methionine
Format: biochemical, E. coli
assay.context: cell extract of E. coli W3110 transformants; 1 mM homoserine, 0.1 mM succinyl-CoA, 50 mM Tris/Cl pH 7.6
assay.endpoint: Activity (U/mg)

| molecule | numeric.result |
| --- | --- |
| pSLmetA*0: MetA variant in which amino acid 294 is deleted (protein, UniProt P07623 2-309, looked up, variant Y294*) Homoserine …: PIRVPDELPAVNFLREENVFVMTTSRASGQEIRPLKVLILNLMPKKIETENQFLRLLSNSPLQVDIQLLRIDSRESRNTPAEHLNNFYCNFEDIQDQNFDGLIVTGAPLGLVEFNDVAYWPQIKQVLEWSKDHVTSTLFVCWAVQAALNILYGIPKQTRTEKLSGVYEHHILHPHALLTRGFDDSFLAPHSRYADFPAALIRDYTDLEILAETEEGDAYLFASKDKRIAFVTGHPEYDAQTLAQEFFRDVEAGLDPDVPYNYFPHNDPQNTPRASWRSHGNLLFTNWLNYYVQITPYDLRHMNPTLD | 0.085 |
| pSLmetAI: MetA variant with Ile instead of Asp at position 101 (protein, UniProt P07623 2-309, looked up, variant D101I) Homoserine …: PIRVPDELPAVNFLREENVFVMTTSRASGQEIRPLKVLILNLMPKKIETENQFLRLLSNSPLQVDIQLLRIDSRESRNTPAEHLNNFYCNFEDIQDQNFIGLIVTGAPLGLVEFNDVAYWPQIKQVLEWSKDHVTSTLFVCWAVQAALNILYGIPKQTRTEKLSGVYEHHILHPHALLTRGFDDSFLAPHSRYADFPAALIRDYTDLEILAETEEGDAYLFASKDKRIAFVTGHPEYDAQTLAQEFFRDVEAGLDPDVPYNYFPHNDPQNTPRASWRSHGNLLFTNWLNYYVYQITPYDLRHMNPTLD | 0.107 |
| pSLmetAA: MetA variant with Ala instead of Asp at position 101 (protein, UniProt P07623 2-309, looked up, variant D101A) Homoserine …: PIRVPDELPAVNFLREENVFVMTTSRASGQEIRPLKVLILNLMPKKIETENQFLRLLSNSPLQVDIQLLRIDSRESRNTPAEHLNNFYCNFEDIQDQNFAGLIVTGAPLGLVEFNDVAYWPQIKQVLEWSKDHVTSTLFVCWAVQAALNILYGIPKQTRTEKLSGVYEHHILHPHALLTRGFDDSFLAPHSRYADFPAALIRDYTDLEILAETEEGDAYLFASKDKRIAFVTGHPEYDAQTLAQEFFRDVEAGLDPDVPYNYFPHNDPQNTPRASWRSHGNLLFTNWLNYYVYQITPYDLRHMNPTLD | 0.031 |
| pSLmetA*Q: MetA variant with Gln instead of Tyr at position 294 (protein, UniProt P07623 2-309, looked up, variant Y294Q) Homoserine …: PIRVPDELPAVNFLREENVFVMTTSRASGQEIRPLKVLILNLMPKKIETENQFLRLLSNSPLQVDIQLLRIDSRESRNTPAEHLNNFYCNFEDIQDQNFDGLIVTGAPLGLVEFNDVAYWPQIKQVLEWSKDHVTSTLFVCWAVQAALNILYGIPKQTRTEKLSGVYEHHILHPHALLTRGFDDSFLAPHSRYADFPAALIRDYTDLEILAETEEGDAYLFASKDKRIAFVTGHPEYDAQTLAQEFFRDVEAGLDPDVPYNYFPHNDPQNTPRASWRSHGNLLFTNWLNYYVQQITPYDLRHMNPTLD | 0.065 |
